Reported z-score is given for each of the following compounds.
test_description: S. cerevisiae RM11-1a growth modifiers, primary screen, strain RM11-1a, OD600, basal, 24 h (AID 1177);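 further: cultures grown under basal conditions with no added stressor; test concentration not given here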
test_settings: OD600, 24 h, higher = more signal, called active from +8 up or from −8 down

{"columns": ["compound", "z-score"],
 "data": [
  ["O=C1CCCC=C1C(O)c1ccc([N+](=O)[O-])cc1 (stereo unspecified)", -0.66],
  ["O=C1[C@H]2[C@H]3[C@H](O)[C@H](O)CC(=NOC[C@@H](O)COCc4ccco4)[C@@H]3CC[C@H]2C(=O)N1C1CCCCC1", 0.153],
  ["COC(OC)[C@@H](C)[C@H](OC)[C@@H](C)[C@H](OC)c1ccccc1", -1.02],
  ["CC(=O)OC[C@H]1O[C@@H](ON=C2[C@H]3CCn4c(=O)n(-c5ccccc5)c(=O)n4[C@H]3[C@H](O)[C@@H]3O[C@H]23)[C@H](OC(C)=O)[C@@H](OC(C)=O)[C@@H]1OC(C)=O", -0.184],
  ["CC(C)(C)N1C(=O)[C@H]2[C@H]3[C@H](O)[C@H](O)CC(=NOC[C@@H](O)COCc4ccco4)[C@@H]3CC[C@H]2C1=O", -0.0396],
  ["O=C1CCCC=C1C(O)C1CCCCC1 (stereo unspecified)", -0.647]
]}
